- target_system: HNF4alpha2 (COS-7 nuclear extract) (Homo sapiens, UniProt P41235 1-474)
- Sequence: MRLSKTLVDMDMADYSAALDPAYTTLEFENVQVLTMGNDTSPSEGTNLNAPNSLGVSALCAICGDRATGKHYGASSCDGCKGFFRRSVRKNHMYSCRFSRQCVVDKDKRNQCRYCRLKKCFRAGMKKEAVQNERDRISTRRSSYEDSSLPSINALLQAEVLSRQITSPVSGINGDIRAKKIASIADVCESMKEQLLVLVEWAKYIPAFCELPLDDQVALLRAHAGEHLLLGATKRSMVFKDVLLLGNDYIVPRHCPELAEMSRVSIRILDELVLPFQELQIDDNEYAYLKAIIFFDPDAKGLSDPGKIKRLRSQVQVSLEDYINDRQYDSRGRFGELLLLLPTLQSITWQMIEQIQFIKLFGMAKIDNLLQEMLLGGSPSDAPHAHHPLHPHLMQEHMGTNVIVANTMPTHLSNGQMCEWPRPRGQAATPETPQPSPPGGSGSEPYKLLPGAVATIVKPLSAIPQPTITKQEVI
- experimental_protocol: protein-binding microarray; COS-7 nuclear extract on double-stranded Agilent 4x180k PBM; binding buffer, salt, pH and temperature not given in the material; high values mean tight binding
- conditions_used: chain copies: 2; label: 3' end of strand 1 on the slide; dsDNA, one strand shown
Over roughly 18,000 sequences, “log2 normalized intensity” has its median near 0.39; the highest 2% begin near 6.6. Many of the other results were omitted from the sample, so the highest values are more common in it than they were.
Entry class follows binding signal: interval 1: < 0.5 log2 normalized intensity; interval 2: ≥ 0.5 log2 normalized intensity and < 4 log2 normalized intensity; interval 3: ≥ 4 log2 normalized intensity

Completed entries (count: 5):
AAGTTCAAGTAGATAAAATCAAACAGATGTGCCTAGGGAGATTAGAGTATCGGTCGA
interval 2
TTTTTGGCCTTTACCCCTTGAGTTTGAACTGCCTAGGGAGATTAGAGTATCGGTCGA
interval 2
GAACTTTGACCACCTACTGTTTGTGCAGAGGCCTAGGGAGATTAGAGTATCGGTCGA
interval 3
GCCACCTTGGTGAGAGATTAAACATGCTCTGCCTAGGGAGATTAGAGTATCGGTCGA
interval 1
CATTAAGCTTAGCGTTATCAAACCAAATATGCCTAGGGAGATTAGAGTATCGGTCGA
interval 1

Returns: class label. Input: GCATTAACATCAACATGGACTTTGAGTCATGCCTAGGGAGATTAGAGTATCGGTCGA
interval 3

Classify this sequence: GGAGCCCCCTGGGGGAGGTTTCCTGCTGTCGCCTAGGGAGATTAGAGTATCGGTCGA
interval 1

Just checking, what class would you give CAACTTTCTCCTCCAGGACCTTGCCCTTTAGCCTAGGGAGATTAGAGTATCGGTCGA here?
interval 3

Which bin, given its binding signal, does AGGGTCTTTGCAACTGTGTGTGGCCTGCACGCCTAGGGAGATTAGAGTATCGGTCGA occupy?
interval 2

---

We begin with a simple list: items and their reported binding signal.
- target_system: HNF4alpha2 (COS-7 nuclear extract) (Homo sapiens, UniProt P41235 1-474)
- Sequence: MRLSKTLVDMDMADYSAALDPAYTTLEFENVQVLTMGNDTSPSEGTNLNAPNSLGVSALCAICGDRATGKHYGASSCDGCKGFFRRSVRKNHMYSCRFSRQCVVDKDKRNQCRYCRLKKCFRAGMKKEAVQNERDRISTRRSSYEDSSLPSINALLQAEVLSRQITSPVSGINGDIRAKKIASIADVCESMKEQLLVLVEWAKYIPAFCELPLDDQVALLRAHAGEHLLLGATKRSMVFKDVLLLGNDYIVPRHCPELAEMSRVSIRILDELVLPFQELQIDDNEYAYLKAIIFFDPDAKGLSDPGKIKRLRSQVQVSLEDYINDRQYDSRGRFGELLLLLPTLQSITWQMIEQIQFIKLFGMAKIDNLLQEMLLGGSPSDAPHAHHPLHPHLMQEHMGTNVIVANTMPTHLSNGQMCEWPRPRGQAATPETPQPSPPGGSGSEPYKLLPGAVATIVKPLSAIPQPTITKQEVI
- experimental_protocol: protein-binding microarray; COS-7 nuclear extract on double-stranded Agilent 4x180k PBM; binding buffer, salt, pH and temperature not given in the material; high values mean tight binding
- conditions_used: chain copies: 2; label: 3' end of strand 1 on the slide; dsDNA, one strand shown
In all, about 18,000 sequences were measured (“log2 normalized intensity”: median about 0.39, highest 2% from about 6.6 on). Only a selection was taken, and the highest values are over-represented in it overall.
Give just the numeric value; log2 normalized intensity need not be written.

Known results for sequences:
TGGTACTATGACCTTTCACCTTTTAGCTTGGCCTAGGGAGATTAGAGTATCGGTCGA
5.81
GAGCGCTTTGAGGCCTATGGCGAAAAAGGAGCCTAGGGAGATTAGAGTATCGGTCGA
-0.829
GTCTAATTGTGCTGAGAGAGTCCTTGTTTGGCCTAGGGAGATTAGAGTATCGGTCGA
1.63
CTTTGGACTTTCAAAAGTTAAGGTCAAGACGCCTAGGGAGATTAGAGTATCGGTCGA
1.94
CCCAGGTCACCCACAACCTACCCTTTGCCCGCCTAGGGAGATTAGAGTATCGGTCGA
3.99
GTCAAAACTTTGTTTGAGTTCCAAAGTCCAGCCTAGGGAGATTAGAGTATCGGTCGA
6.99
TTAGAGAAAGGGTCAAAGGTTAAGCCATTGGCCTAGGGAGATTAGAGTATCGGTCGA
5.92
TCAGGAGTGATGCCAGAAGATTAGTGATGGGCCTAGGGAGATTAGAGTATCGGTCGA
-0.625

Name the reported binding signal value associated with the sequence CTCTGAGATTCGGTGAGGGATTGTTTAGGTGCCTAGGGAGATTAGAGTATCGGTCGA
0.957

Give its binding signal value. Item: ATGTGGTCAAAACTTTGTTTGAGTTCCAAAGCCTAGGGAGATTAGAGTATCGGTCGA
1.07

Tell me the measured binding signal of AGAAAACACAGAGATCTGATCAAAGGTCATGCCTAGGGAGATTAGAGTATCGGTCGA , please.
5.9

Can you look up the measured binding signal of TATGACCAGTGTGTTGTGCTGACCTCCTGTGCCTAGGGAGATTAGAGTATCGGTCGA for me?
3.19

So what's the measured binding signal for this one? GGAGAAGTTTTATGGCAGGGTCGGAATGTCGCCTAGGGAGATTAGAGTATCGGTCGA
1.55
